Consider the following molecules; for each one, report its IC50 at 4 days.
Assay: Cytotoxicity against mouse NIH/3T3 cells assessed as reduction in cell viability incubated for 4 days by SRB assay
Format: toxicity, cell-based, NIH3T3

Task item: # lookup: IC50 at 4 days of CONC(=O)[C@H]1[C@@H](O)[C@@]2(O)c3c(OC)cc(OC)cc3O[C@@]2(c2ccc(OC)cc2)[C@@H]1c1ccccc1
Reply: 9 nM

Task item: # lookup: IC50 at 4 days of COc1ccc([C@@]23Oc4cc(OC)cc(OC)c4[C@@]24NC(C)=N[C@@]4(O)[C@H](C(=O)N(C)OC)[C@H]3c2ccccc2)cc1
Reply: 2 nM
